# TESTED_TARGET: Adenosine A2 receptor (Rattus norvegicus, UniProt P29276+P30543)
# ASSAY_INFO: Binding affinity towards adenosine A2 receptor
# Type: protein assay
Classification by Ki | ranges: LOW (below 400 nM), MEDIUM (400 nM to below 4000 nM), HIGH (4000 nM or more)

Solved entries:
>>> class_assignment("OC[C@H]1O[C@@H](n2cnc3c(NC4CCCc5ccccc54)ncnc32)[C@H](O)[C@@H]1O (some centres not stated)")
"LOW"
>>> class_assignment("OC[C@H]1O[C@@H](n2cnc3c(N[C@@H]4CCCc5ccccc54)ncnc32)[C@H](O)[C@@H]1O")
"LOW"
>>> class_assignment("OC[C@H]1O[C@@H](n2cnc3c(NC4CCSc5ccccc54)ncnc32)[C@H](O)[C@@H]1O (some centres not stated)")
"LOW"
>>> class_assignment("COc1ccc2c(c1)CCCC2Nc1ncnc2c1ncn2[C@@H]1O[C@H](CO)[C@@H](O)[C@H]1O (some centres not stated)")
"MEDIUM"

Band of OC[C@H]1O[C@@H](n2cnc3c(NCC4(O)CCc5ccccc54)ncnc32)[C@H](O)[C@@H]1O (some centres not stated) ?
MEDIUM

Into which bin does this compound go? COc1cc2c(c(OC)c1OC)C(Nc1ncnc3c1ncn3[C@@H]1O[C@H](CO)[C@@H](O)[C@H]1O)CC2 (some centres not stated)
HIGH

* * *

# TESTED_TARGET: Adenosine A2 receptor (Rattus norvegicus, UniProt P29276+P30543)
# ASSAY_INFO: Binding affinity towards adenosine A2 receptor
# Assay type: protein assay
Measured Ki of individual entries
Please give a number only; it is taken to be in nM.

Summary line: CCOc1cccc2c1CCCC2Nc1ncnc2c1ncn2[C@@H]1O[C@H](CO)[C@@H](O)[C@H]1O (stereo not given in full) , Adenosine A2 receptor (Rattus norvegicus, UniProt P29276+P30543), reported Ki = 396

Summary: OC[C@H]1O[C@@H](n2cnc3c(N[C@H]4CCCc5ccccc54)ncnc32)[C@H](O)[C@@H]1O , Adenosine A2 receptor (Rattus norvegicus, UniProt P29276+P30543), Ki = 3989

Adenosine A2 receptor (Rattus norvegicus, UniProt P29276+P30543) data for OC[C@H]1OC(n2cnc3c(NCC4(O)CCCc5ccccc54)ncnc32)[C@H](O)[C@@H]1O (stereo not given in full) ; its Ki: 1922

Recorded Ki for CCCCOc1ccc2c(c1)CCC2Nc1ncnc2c1ncn2[C@@H]1O[C@H](CO)[C@@H](O)[C@H]1O (single isomer, unassigned; isomer A) on Adenosine A2 receptor (Rattus norvegicus, UniProt P29276+P30543) was 103200

Form field, Ki with Adenosine A2 receptor (Rattus norvegicus, UniProt P29276+P30543), item CCOc1ccc2c(c1)C(Nc1ncnc3c1ncn3[C@@H]1O[C@H](CO)[C@@H](O)[C@H]1O)CCC2 (stereo not given in full) : 5929

* * *

# TESTED_TARGET: Adenosine A2 receptor (Rattus norvegicus, UniProt P29276+P30543)
# ASSAY_INFO: Binding affinity towards adenosine A2 receptor
# Type: protein assay
MEASURED_QUANTITY: Ki
Note to self: number, then unit, no commentary.

>>> recorded_value("CCCCOc1ccc2c(c1)CCC2Nc1ncnc2c1ncn2[C@@H]1O[C@H](CO)[C@@H](O)[C@H]1O (single isomer, unassigned; isomer B)")
"3946 nM"
>>> recorded_value("OC[C@H]1O[C@@H](n2cnc3c(N[C@@H]4CCc5ccccc54)ncnc32)[C@H](O)[C@@H]1O")
"412 nM"
>>> recorded_value("COc1ccc2c(c1)CCC2Nc1ncnc2c1ncn2[C@@H]1O[C@H](CO)[C@@H](O)[C@H]1O (stereo in doubt; 4)")
"4350 nM"
>>> recorded_value("OC[C@H]1O[C@@H](n2cnc3c(NC4CCCc5c(OCc6ccccc6)cccc54)ncnc32)[C@H](O)[C@@H]1O (stereo partly specified)")
"511 nM"
>>> recorded_value("OC[C@H]1O[C@@H](n2cnc3c(N[C@H]4CCc5ccccc54)ncnc32)[C@H](O)[C@@H]1O")
"23000 nM"

For reference, reported Ki for OC[C@H]1O[C@@H](n2cnc3c(NC4Cc5ccccc5C4)ncnc32)[C@H](O)[C@@H]1O stands at 1642 nM

* * *

# TESTED_TARGET: Adenosine A2 receptor (Rattus norvegicus, UniProt P29276+P30543)
# ASSAY_INFO: Binding affinity towards adenosine A2 receptor
# Format: protein assay
Threshold 0.6 µM: Ki strictly smaller gives Fulfilled, otherwise Not fulfilled.

>>> class_assignment("OC[C@H]1O[C@@H](n2cnc3c(NC4CCCc5ccccc5C4)ncnc32)[C@H](O)[C@@H]1O (stereo not given in full)")
"Not fulfilled"
>>> class_assignment("CC(C)Oc1cccc2c1CCCC2Nc1ncnc2c1ncn2[C@@H]1O[C@H](CO)[C@@H](O)[C@H]1O (stereo not given in full)")
"Not fulfilled"
>>> class_assignment("OC[C@H]1OC(n2cnc3c(NC4CCc5ccccc5C4)ncnc32)[C@H](O)[C@@H]1O (stereo not given in full)")
"Fulfilled"
>>> class_assignment("OC[C@H]1O[C@@H](n2cnc3c(NCC4=CCCc5ccccc54)ncnc32)[C@H](O)[C@@H]1O")
"Fulfilled"

Let's switch to this compound now.
Consider the compound OC[C@H]1OC(n2cnc3c(NCC4=CCCCc5ccccc54)ncnc32)[C@H](O)[C@@H]1O (stereo not given in full) . Is its Ki strictly less than 0.6 µM?
Not fulfilled
